Read-out record for Salmonella enteritidis Gartner: MIC
Express it in µg/mL; write the number only.

Use these answered entries as a reference point.
> print(dat)
                                   molecule  result
1  CO[C@@]1(NC(=O)CSc2ccon2)C(=O)N2C(C(=O)O)=C(CSc3nnnn3C)CS[C@@H]21 [drawing 12 / drawing 10]     0.8
2  CO[C@@]1(NC(=O)CSCC#N)C(=O)N2C(C(=O)O)=C(COC(N)=O)CS[C@@H]21 [NCCH2 S / OCONH2]     1.5
3  CO[C@@]1(NC(=O)CSCC#N)C(=O)N2C(C(=O)O)=C(CSc3nnnn3C)CS[C@@H]21 [NCCH2 S / drawing 6]     0.2

Assay Salmonella enteritidis Gartner, sample CO[C@@]1(NC(=O)C[n+]2cc([O-])on2)C(=O)N2C(C(=O)O)=C(CSc3nnnn3C)CS[C@@H]21 [drawing 7 / drawing 6] , MIC read: 0.8

Observed MIC on Salmonella enteritidis Gartner, entry CO[C@@]1(NC(=O)CSCCO)C(=O)N2C(C(=O)O)=C(CSc3nnnn3C)CS[C@@H]21 [HOCH2 CH2 S / drawing 6] , equals 0.8

MIC value, target or system Salmonella enteritidis Gartner, for CCS(=O)(=O)CC(=O)N[C@]1(OC)C(=O)N2C(C(=O)O)=C(CSc3nnnn3C)CS[C@@H]21 [C2 H5 SO2 / drawing 6] : 0.8

Each recorded value in this set is attributed to patent US4051129A.
